target-under-test: Mouse ACVR2A (mouse, UniProt P27038 20-135, limits assumed); further: test concentration or dose not given here
Sequence (P27038 20-135 limits assumed): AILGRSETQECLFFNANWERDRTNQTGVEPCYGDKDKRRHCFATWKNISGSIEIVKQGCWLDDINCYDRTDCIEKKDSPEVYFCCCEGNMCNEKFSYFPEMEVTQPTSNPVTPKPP
method-notes: ELISA
Method: The binding of ACVR2A-specific monoclonal antibodies to human ACVR2A, mouse ACVR2A, biotinylated goat anti-human kappa light chain (positive control) and human Fc (negative control) were determined by ELISA.
optical density: recorded values
The response must be a number in OD with no trailing unit.

366_D04 (antibody, V domains shown, VH/VL only) VH: EVQLLESGGGLVQPGGSLRLSCAASGFTFSSYSMNWVRQAPGKGLEWVSGINYNGGYTSYADSVKGRFTISRDNSKNTLYLQMNSLRAEDTAVYYCARSANWHDTALDYWGQGTLVTVSS VL: DIQMTQSPSSLSASVGDRVTITCRASQSISSYVNWYQQKPGKAPKLLIYATTSRASGVPSRFSGSGSGTDFTLTISSLQPEDFATYYCQQSYETPLTFGGGTKVEIK; 2.12

// moving on: another record for optical density
Input line: Give its optical density value. Item: 366_F04 (antibody, V domains shown, VH/VL only) VH: EVQLLESGGGLVQPGGSLRLSCAASGFTFSDYGMNWVRQAPGKGLEWVSGINYNGGYTSYADSVKGRFTISRDNSKNTLYLQMNSLRAEDTAVYYCARSANWHDTALDYWGQGTLVTVSS VL: DIQMTQSPSSLSASVGDRVTITCRASQSILSYVNWYQQKPGKAPKLVIYATTSRHSGVPSRFSGSGSGTDFTLTISSLQPEDFATYYCQQSYESPLTFGGGTKVEIK
Output line: 1.91
